Tested on: EKVX NSCLC
protocol: NCI-60 one-dose screen, 48 h
test settings: 10 µM unless noted
Compounds without any hit were thinned out: in the full panel of roughly 83,000, 20% have a hit. Active and inactive are the calls of the source. Rule for the calls: active = growth percent below 10; inactive = the rest.
Labels: yes (1) for active, no (0) for inactive

INSERT INTO assay_data (compound, group) VALUES
  ('Cc1cc(=O)c2cc3nc(-c4cccnc4)oc3c(Br)c2o1', 'no (0)'),
  ('COc1cc2c(c(OC)c1OC)C(=O)/C(=C/c1cc(C)c(O)c(C)c1)S2', 'no (0)'),
  ('COc1ccc(C2CC(c3ccccc3)=NN2c2nc(C)c(C(C)=O)s2)cc1 (stereo not drawn)', 'no (0)'),
  ('COc1cc2ccccc2cc1C(=O)NC(=S)Nc1ccc(-c2nc3ccccc3[nH]2)cc1', 'no (0)'),
  ('O=C(Oc1ccc[nH]c1=O)c1cc([N+](=O)[O-])cc([N+](=O)[O-])c1', 'no (0)'),
  ('COC(=O)[C@]12CC[C@@H](C)[C@H](C)[C@@H]1C1=CC[C@@H]3[C@@]4(C)C(C=O)=C[C@@](C)(CO)C4=CC[C@@]3(C)[C@]1(C)CC2', 'no (0)'),
  ('CCOC(=O)c1c(C)nc2c(c1N)/C(=C/c1cc(OC)c(OC)c(OC)c1)C(=O)N2c1ccc(OC)cc1', 'no (0)'),
  ('CCCCn1c(=O)[nH]c(N)c(C(c2ccc(F)cc2)c2c(N)[nH]c(=O)n(CCCC)c2=O)c1=O', 'no (0)'),
  ('Cn1ccnc1C(=O)/C=C/c1ccc(C(=O)Nc2ccc(S(F)(F)(F)(F)F)cc2)cc1', 'no (0)'),
  ('CCOC(=O)c1cnn2c(-c3ccc(Cl)cc3)nc(NCc3ccccc3)nc12', 'no (0)'),
  ('CCc1cc(Cc2cc(CC)cc(C(C)(C)C)c2O)c(O)c(C(C)(C)C)c1', 'no (0)'),
  ('C=C1C(=O)O[C@H]2[C@H]1CC/C(COC(=O)/C=C\C(=O)NCc1ccc(Cn3c(=O)sn(-c4ccc(C#N)cc4)c3=O)cc1)=C\CC[C@@]1(C)O[C@@H]21', 'yes (1)'),
  ('C=CC(=O)N[C@@H](Cc1ccc(-c2cc(Cl)cc(Cl)c2)cc1)[C@@H](O)[C@H](O)C(=O)O', 'no (0)'),
  ('CC(C)OC(=O)NNC(=O)c1ccncc1', 'no (0)'),
  ('C[C@H]1[C@H]2C3=CC[C@@H]4[C@@]5(C)C/C(=C/c6ccncc6)C(=O)C(C)(C)[C@@H]5CC[C@@]4(C)[C@]3(C)CC[C@@]2(C(=O)N2CCN(C)CC2)CC[C@@H]1C', 'no (0)'),
  ('O=C1Nc2ccc(Cl)cc2/C1=N/N=C/c1c[nH]c2ccccc12', 'no (0)'),
  ('N=C(N)c1ccc(-c2ccc(/C=C/c3ccccc3)s2)cc1', 'no (0)'),
  ('O=S(=O)(Cc1ccccc1)c1nc2ccccc2s1', 'no (0)');

* * *

Test system: OVCAR-8 ovarian
protocol: NCI-60 one-dose screen, 48 h
test settings: 10 µM unless noted
About 83,000 compounds went through this panel and 20% of them were active in at least one assay; those are over-represented in the sample as a whole. Active and inactive are the calls of the source. Rule for the calls: active = growth percent below 10; inactive = the rest.
Labels: active, inactive

INSERT INTO results (compound, group) VALUES
  ('O[C@H]1CO[C@H]2[C@@H]1OC[C@@H]2Oc1ccc(Nc2nc(Nc3ccc(F)c(Cl)c3)ncc2F)cc1Cl', 'inactive'),
  ('CC(=O)Nc1ccc(C(=O)/C=C/c2ccccc2)cc1', 'inactive'),
  ('C=C1C(=O)O[C@H]2[C@H]1CC/C(COC(=O)/C=C\C(=O)NCc1ccc(Cn3c(=O)sn(-c4ccc(C#N)cc4)c3=O)cc1)=C\CC[C@@]1(C)O[C@@H]21', 'active'),
  ('COc1ccc(-n2ncn(CCCCCCn3cnn(-c4ccc(OC)cc4)c3=O)c2=O)cc1', 'inactive'),
  ('CCOC(=O)C(O)C(O)(c1ccccc1)c1ccccc1 (stereo unspecified)', 'inactive'),
  ('CCCCCCCSc1ccc(C(=O)O)cc1', 'inactive');
